Would you mind telling me the reported SPOT intensity of each entry?
Target: T1, Bbc1, P47068
T1 sequence (P47068 1-78, looked up): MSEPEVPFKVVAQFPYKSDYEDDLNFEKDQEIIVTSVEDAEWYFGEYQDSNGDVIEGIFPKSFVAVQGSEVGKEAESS
Assay: SPOT array
Details: median of control spots 796

| BINDER | TEST_RESULT |
| --- | --- |
| PPIPNAPLSPAPAVP | 0 |
| LKRITSPPLPPRADS | 33 |
| RPKRRAPPPVPKKPS | 487 |

Report SPOT intensity for each item below.
1. TEVPIPRRPPPPQAA
2. ISNFVPPNLPMRRFK
3. FTLPPPPPPPGLDEL
4. NVLRKILEIPLHSFS
5. VFQFQMPTTPISTKM

**A:**
[3, 199, 0, 62, 0]
